- Test system: MDA-MB-231 breast
- experimentDescription: NCI-60 one-dose screen, 48 h
- studyConditions: 10 µM
The panel holds about 83,000 compounds, 20% with a hit somewhere; the sample as a whole holds those more often. Calls of active or inactive are those of the source. The calls were made as follows: active = growth percent below 10; inactive = the rest.
Permitted responses: active, inactive

Some entries whose results are on file:
Challenge: Query: recorded result category for `O=C(c1ccccc1)c1ccc2nc(-c3ccccc3Br)[nH]c2c1` in this test
Response given: active

Challenge: Query: recorded result category for C#CCOc1cc(N(CC)CC)ccc1C(C(=O)NC(C)(C)C)N(C(=O)C1CCc2cc(F)ccc2O1)c1ccc(F)cc1F (configuration not stated) in this test
Response given: inactive

Challenge: Query: recorded result category for `O=C(Nc1ccc(OCc2ccc(F)cc2)cc1)Nc1ccc(Cl)c(C(F)(F)F)c1` in this test
Response given: active

***
Challenge: Query: recorded result category for `COc1ccc(Cn2cc(C#N)c(N)c2C(C)=O)c(OC)c1` in this test
Response given: inactive

Challenge: Query: recorded result category for `O=C(CC(=O)Nc1ccc(Oc2ncnc3scc(Nc4n[nH]c(=S)s4)c23)cc1)Nc1ccc(Cl)cc1` in this test
Response given: inactive
